SYSTEM_NAME: T1, HLA class I molecule A02.01
T1 construct: Purified MHC class I complex; also called HLA-A02:01
ASSAY_PROTOCOL: competition with radiolabeled reference peptide on purified MHC I
This section presents binders with their documented IC50 values.

>  <BINDER>
MNIANLLGA (also called KIT, V654A)

>  <IC50>
128 nM

$$$$
>  <BINDER>
TLQRSSLWCL (also called GATA3 . . ; CSNH)

>  <IC50>
118 nM

$$$$
>  <BINDER>
HMNIANLLGA (also called KIT, V654A)

>  <IC50>
430 nM

$$$$
>  <BINDER>
VIIEYCCYG (also called KIT, T670I)

>  <IC50>
191 nM

$$$$
